Below, each entry is listed with its recorded EC50.
# experimental.system: F508delCFTR (Homo sapiens, UniProt P13569, DEL508-508)
# Construct: expressed in transfected cells; host or cells: CFBE41o- human lung-derived epithelial cells (CFBE4lo-F508delCFTR-HRP), doxycycline-inducible
# Sequence (P13569 with tags, fused parts or gaps DEL508-508): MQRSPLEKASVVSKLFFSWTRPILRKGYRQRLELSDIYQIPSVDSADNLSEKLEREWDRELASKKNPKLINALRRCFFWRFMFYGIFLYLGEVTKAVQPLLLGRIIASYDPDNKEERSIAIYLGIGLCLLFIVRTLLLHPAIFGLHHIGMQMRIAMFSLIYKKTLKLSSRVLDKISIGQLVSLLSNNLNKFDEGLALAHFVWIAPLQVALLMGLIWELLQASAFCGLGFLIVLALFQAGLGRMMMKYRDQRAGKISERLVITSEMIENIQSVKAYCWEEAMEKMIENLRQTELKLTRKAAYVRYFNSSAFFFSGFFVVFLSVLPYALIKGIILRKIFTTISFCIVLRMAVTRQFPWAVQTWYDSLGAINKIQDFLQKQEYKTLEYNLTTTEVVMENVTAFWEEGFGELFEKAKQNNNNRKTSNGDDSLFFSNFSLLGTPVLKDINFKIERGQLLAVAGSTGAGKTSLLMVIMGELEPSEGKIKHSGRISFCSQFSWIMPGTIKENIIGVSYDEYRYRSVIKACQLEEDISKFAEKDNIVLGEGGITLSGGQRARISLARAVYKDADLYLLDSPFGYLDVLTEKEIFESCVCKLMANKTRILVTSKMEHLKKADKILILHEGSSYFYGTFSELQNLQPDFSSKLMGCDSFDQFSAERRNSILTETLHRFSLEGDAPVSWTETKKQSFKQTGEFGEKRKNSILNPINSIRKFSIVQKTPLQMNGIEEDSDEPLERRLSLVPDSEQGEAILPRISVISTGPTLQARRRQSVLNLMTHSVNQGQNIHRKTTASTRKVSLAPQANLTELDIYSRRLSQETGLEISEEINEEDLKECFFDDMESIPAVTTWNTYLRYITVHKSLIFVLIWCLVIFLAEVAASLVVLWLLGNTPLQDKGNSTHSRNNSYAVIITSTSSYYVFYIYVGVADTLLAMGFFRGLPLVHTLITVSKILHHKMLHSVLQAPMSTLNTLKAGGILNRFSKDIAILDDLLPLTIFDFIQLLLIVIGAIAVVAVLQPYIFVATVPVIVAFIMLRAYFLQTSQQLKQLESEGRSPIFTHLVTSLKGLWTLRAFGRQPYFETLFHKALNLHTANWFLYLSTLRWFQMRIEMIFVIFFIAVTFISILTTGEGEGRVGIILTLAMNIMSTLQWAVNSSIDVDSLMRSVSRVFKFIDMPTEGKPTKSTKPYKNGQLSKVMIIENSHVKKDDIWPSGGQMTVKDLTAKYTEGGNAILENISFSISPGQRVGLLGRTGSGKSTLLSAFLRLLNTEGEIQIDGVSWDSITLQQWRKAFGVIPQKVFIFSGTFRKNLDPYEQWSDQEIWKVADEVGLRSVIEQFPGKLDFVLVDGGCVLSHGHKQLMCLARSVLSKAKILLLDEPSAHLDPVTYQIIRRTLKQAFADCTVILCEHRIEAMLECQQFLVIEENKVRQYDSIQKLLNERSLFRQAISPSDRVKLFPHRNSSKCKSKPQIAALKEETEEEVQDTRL
# method: Cell Surface Expression-Horse Radish Peroxidase (CSE-HRP) Assay
# Assay type: cell-based
# measurement.conditions: with co-corrector (2 μM of 3-[(2R,4R)-4-({[1-(2,2-difluoro-1,3-benzodioxol-5-yl)cyclopropyl]carbonyl}amino)-7-methoxy-3,4-dihydro-2H-chromen-2-yl]benzoic acid); read-out: EC50 (with co-corrector)

molecule	EC50
COc1ccc(C2CCOCC2)cc1CN[C@H]1[C@H](C(C)(C)C)[C@@H](C(=O)O)N(C(=O)C2CCCCC2)[C@H]1c1ccccc1 [II-340]	1000 to 10000 nM
COc1ccc(Br)nc1CN[C@H]1[C@H](C(C)(C)C)[C@@H](C(=O)O)N(C(=O)C2CCCCC2)[C@H]1c1ccccc1 [Example I-134]	1000 to 10000 nM
COc1ccc(-c2ccccc2)cc1CN[C@H]1[C@H](C(C)(C)C)[C@@H](C(=O)O)N(C(=O)[C@@H]2CCC[C@@H](OC)C2)[C@H]1c1ccccc1 [Example I-78]	< 1000 nM
COc1nc(C(C)(C)C)ccc1CN[C@H]1[C@H](C(C)(C)C)[C@@H](C(=O)O)N(C(=O)[C@@H]2CCCCO2)[C@H]1c1cccnc1N(C)C [Example I-235]	< 1000 nM
COc1ccc(C(C)(C)C)cc1CN[C@H]1[C@H](C(C)(C)C)[C@@H](C(=O)O)N(C(=O)C2CCCC(C(F)(F)F)C2)[C@H]1c1cccnc1N(C)C (stereo partly drawn) [III-206]	< 1000 nM
COc1ccc(C(C)(C)C)cc1CN[C@H]1[C@H](C(C)(C)C)[C@@H](C(=O)O)N(C(=O)c2c(C)nn3c2CCCC3)[C@H]1c1ccccc1 [II-363]	1000 to 10000 nM
CC(C)(C)[C@H]1[C@H](NCc2ccc(F)c(C#N)c2)[C@H](c2ccccc2)N(C(=O)C2CCCCC2)[C@@H]1C(=O)O [III-125]	1000 to 10000 nM
COc1ncc(N2CCCC2)cc1CN[C@H]1[C@H](C(C)(C)C)[C@@H](C(=O)O)N(C(=O)OC(C)C)[C@H]1c1cccnc1N(C)C [II-577]	1000 to 10000 nM
COc1ccc(C(C)(C)C)cc1CN[C@H]1[C@H](C(C)(C)C)[C@@H](C(=O)O)N(C(=O)C2CCCCC2)[C@H]1c1cccnc1OC(F)F [Example I-225]	1000 to 10000 nM
COc1ccc(C(C)(C)C)cc1CN[C@H]1[C@H](C(C)(C)C)[C@@H](C(=O)O)N(C(=O)C2CC=CC2)[C@H]1c1ccccc1 [II-321]	< 1000 nM
Cc1cc(C(F)(F)F)cc(N[C@H]2[C@H](C(C)(C)C)[C@@H](C(=O)O)N(C(=O)C3CCCCC3C(F)(F)F)[C@H]2c2cccnc2N(C)C)n1 (stereo partly drawn) [II-502]	1000 to 10000 nM
COc1ccc(C(F)(F)F)cc1CN[C@@H]1[C@@H](C(C)(C)C)[C@H](C(=O)O)N(C(=O)C2CCCCC2)[C@@H]1c1ccccc1N(C)C (racemic) [Example I-22]	< 1000 nM
